Molecular target: hMPV B2 F trimer (heated) (human metapneumovirus)
Assay: ELISA on coated recombinant protein, OD 405 nm
Please respond with reported EC50 for every item in the list.
Answers are plain numbers, in µg/mL.

Worked examples follow.
1) MPV486 (antibody, V domains shown) VH: EVQLVESGGHLVQSGGSLRLSCAASGFTFSNYILNWVRQAPGKGLEWISYITGGSSAIYYADSVKGRFTISRDDAKNSLYLQMNNLRAEDTAVYYCARSHGYDSSGYYYYFAMDVWGQGTTVTVSS VL: QSVLTQPPSASGTPGQRVTISCSGSNSNIESNTVNWYQQIPGTAPKLLIYSDNRRPSGVPDRFSGSKSGTSASLAISGLQSEDEADYYCAAWDDSLIGYVFGTGTKVTV	0.24
2) MPV464 (antibody, V domains shown) VH: QVQLQESGPGLVKPSQTLSLTCTVSGGSVRGGGDYWSWIRRPPGKGLEWIGHIYNSGTTFYNPSLKSRVTISIDTSKNQFSLKLRSVTAADTAVYYCGRVGSRATGLPDWIDPWGQGTLVTVSS VL: SYELTQPPSVSVSPGQTATITCSGTNLGAKYSCWYQQKPGQSPVLVIFQDNKRASGIPARFSASTSGDTATLTISGTQVMDEADYFCQAWDSRTAVFGGGTTLTVL	0.29
3) MPV478 (antibody, V domains shown) VH: EVQLVQSGAEVKKPGASVKVSCNASGYTFTGYYIHWVRQAPGQGLEWMGWINPRSGGTNYAQKFQGRVTLTRDTSITTAYMDVTRLRPDDTAVYYCATTREGIVLMPRGRGDDALDTWGQGTTVIVSS VL: DIVMTQSPVSLTVSLGERATINCKSSQSVLSTSNNENYLAWYQQKPGQPPNLLIYWASTRESGVPDRFSGSGSGTDFTLTISSLQAEDVAVYYCQQYFATPITFGPGTKVDVK	0.02

State recorded EC50 for all listed binders.
1. MPV487 (antibody, V domains shown) VH: EVQLLESGGGLVQPGRSLRLSCTASGFTFDDYAMHWVRQLPGKGLEWVSGISWNSDNIGYADSVKGRFTISRDNGKNSLYLQMNSLRAEDTAFYYCAKDVRIDYDLLIGHIDYWGPGTLVTVSS VL: TQSPVTLSLSPGERATLSCRASQSFGGYCAWYQQKPGQSPRLLIYDASNRATGVPARFSGSGSGTDFTLTISSLEPEDSAVYFCQQRGNWPIFGQGTRLEI
2. MPV485 (antibody, V domains shown) V domain 1: EVQLQEPGPGLVKPSETLSLTCTVSGGSISSTNSFWGWVRQPPGKGLEWIGSIYYSGTTYYNSSLKSRVTISVDTSKNQFSLRLSSVTAADTAVYYCARQGLTSSWYDGSGLDVWG V domain 2: SYELTQPPSVSVSPGQTASITCSGDKLGNKYACWYQQRPGQSPVLVIYQDTKRPSGIPERFSGSNSGNTATLTISGTQAMDEADYYCQAWDSNTVVFGGGTKLTVL

0.54
0.36
